- ASSAY_COMMENT: solubility pre-screen in an aqueous, acidic milieu; further: test concentration or dose not given here
- Format: physicochemical
Where a SMILES comes first, the peptide text is derived from it.
ENDPOINT_LABEL: Solubility test

INSERT INTO assay_data (compound, result) VALUES
  ('CC[C@H](C)[C@H](NC(=O)[C@H](CCCCN)NC(=O)[C@@H](N)CC(N)=O)C(=O)N[C@@H](CCCNC(=N)N)C(=O)N[C@@H](CCC(=O)O)C(=O)N[C@@H](C)C(=O)N[C@@H](CC(C)C)C(=O)N[C@@H](C)C(=O)N[C@@H](CCC(N)=O)C(=O)N[C@H](C(=O)N[C@@H](Cc1c[nH]cn1)C(=O)N[C@@H](CO)C(=O)N[C@@H](C)C(=O)O)[C@@H](C)O [HDM08] (H-NKIREALAQTHSA-OH)', 'YES'),
  ('CC(C)[C@H](NC(=O)[C@H](CCCNC(=N)N)NC(=O)[C@@H](N)CCCCN)C(=O)NCC(=O)N[C@@H](CC(=O)O)C(=O)N[C@@H](C)C(=O)N[C@@H](CC(N)=O)C(=O)N[C@H](C(=O)N[C@@H](CCCCN)C(=O)N[C@@H](CO)C(=O)N[C@@H](CCC(=O)O)C(=O)N[C@@H](CC(=O)O)C(=O)NCC(=O)O)C(C)C [HDM36] (H-KRVGDANVKSEDG-OH)', 'YES'),
  ('CC(C)C[C@H](NC(=O)[C@H](CC(=O)O)NC(=O)[C@H](CC(C)C)NC(=O)[C@H](CCC(=O)O)NC(=O)[C@H](CO)NC(=O)[C@@H]1CCCN1C(=O)[C@@H](NC(=O)[C@H](CC(N)=O)NC(=O)[C@@H](NC(=O)[C@H](CO)NC(=O)[C@@H](N)CC(N)=O)C(C)C)C(C)C)C(=O)N[C@@H](CCCNC(=N)N)C(=O)N[C@@H](CO)C(=O)N[C@@H](CC(C)C)C(=O)N[C@@H](CCCNC(=N)N)C(=O)N[C@H](C(=O)O)[C@@H](C)O [HDM17] (H-NSVNVPSELDLRSLRT-OH)', 'YES');
